Hey, just so you know, these numbers are from the PETadex activity labels (doi:10.1016/j.bbalip.2005.11.003).

- Substrate: tributyrin
- CONDITION NOTES: pH 7; 25 °C

{"PROTEIN": "unnamed (protein) MRSSLVLFFVSAWTALASPIRREVSQDLFNQFNLFAQYSAAAYCGKNNDAPAGTNITCTGNACPEVEKADATFLYSFEDSGVGDVTGFLALDNTNKLIVLSFRGSRSIENWIGNLNFDLKEINDICSGCRGHDGFTSSWRSVADTLRQKVEDAVREHPDYRVVFTGHSLGGALATVAGADLRGNGYDIDVFSYGAPRVGNRAFAEFLTVQTGGTLYRITHTNDIVPRLPPREFGYSHSSPEYWIKSGTLVPVTRNDIVKIEGIDATGGNNQPNIPDIPAHLWYFGLIGTCL", "UNITS OF MEASURE": "M⁻¹ s⁻¹", "kcat/Km": "4.5e+06"}
